Source of measurements: paper PMC11112715

tested on: NIH3T3 mouse fibroblast cells; experiment: MTT cell viability assay in NIH3T3 normal fibroblasts; assay type: cell-based; details: Mus musculus, NIH3T3, 48 h, read-out: IC50 NIH3T3 normal mouse fibroblasts
Observation Type: pIC50
Lab note: report pIC50 as minus log10 of the concentration in molar units, number only.

molecule="O=C1C=C(OCC#C[Se]c2ccc(C(F)(F)F)cc2)C(=O)c2ccccc21 [Compound 9f]" target_entity="NIH3T3 mouse fibroblast cells" observation_type=pIC50 reported_measurement=4.25

The molecule COc1cccc2c1C(=O)c1c(O)c3c(c(O)c1C2=O)C[C@@](O)(C(=O)CO)C[C@@H]3O[C@H]1C[C@H](N)[C@H](O)[C@H](C)O1 [doxorubicin, reference compound] showed pIC50 equal to 5.78

The molecule Cc1ccc([Te]C#CCOC2=CC(=O)c3ccccc3C2=O)cc1 [Compound 10b] showed pIC50 equal to 5.64

The molecule O=C1C=C(OCC#C[Se]c2ccccc2)C(=O)c2ccccc21 [Compound 9a] showed pIC50 equal to 4.08

###

system: SCC-9 cells (human tongue oral squamous cell carcinoma); assay: MTT cell viability assay in SCC-9 cells; type: cell-based; conditions: IC50 in NIH3T3 / IC50 in SCC-9
Observation Type: Selectivity index (S.I.)

// below: answered compounds
compound=O=C1C=C(OCC#C[Se]c2ccc(F)cc2)C(=O)c2ccccc21 reported_measurement=1.03
compound="Cc1ccc([Te]C#CCOC2=CC(=O)c3ccccc3C2=O)cc1 [Compound 10b]" reported_measurement=0.57
compound="O=C1C=C(OCC#C[Te]c2ccccc2)C(=O)c2ccccc21 [Compound 10a]" reported_measurement=3.53
compound="O=C1C=C(OCC#C[Te]c2ccc(Cl)cc2)C(=O)c2ccccc21 [Compound 10c]" reported_measurement=1.70
compound=O=C1C=C(OCC#C[Se]c2ccc(C(F)(F)F)cc2)C(=O)c2ccccc21 reported_measurement=1.78

The compound N.N.O=C([O-])C1(C(=O)[O-])CCC1.[Pt+2] [carboplatin, reference compound] showed Selectivity index (S.I.) equal to 0.27

The compound COc1cccc2c1C(=O)c1c(O)c3c(c(O)c1C2=O)C[C@@](O)(C(=O)CO)C[C@@H]3O[C@H]1C[C@H](N)[C@H](O)[C@H](C)O1 [doxorubicin, reference compound] showed Selectivity index (S.I.) equal to 0.61

The compound COc1ccc([Se]C#CCOC2=CC(=O)c3ccccc3C2=O)cc1 showed Selectivity index (S.I.) equal to 1.10

The compound Cc1ccc([Se]C#CCOC2=CC(=O)c3ccccc3C2=O)cc1 showed Selectivity index (S.I.) equal to 0.52

The compound O=C1C=C(OCC#C[Se]c2ccccc2)C(=O)c2ccccc21 showed Selectivity index (S.I.) equal to 2.62

###

Attribute: IC50
tested on: NIH3T3 mouse fibroblast cells; assay: MTT cell viability assay in NIH3T3 normal fibroblasts; assay type: cell-based; conditions: Mus musculus, NIH3T3, 48 h, read-out: IC50 NIH3T3 normal mouse fibroblasts
// units = µM; emit number, no label

molecule="O=C1C=C(OCC#C[Se]c2ccc(F)cc2)C(=O)c2ccccc21 [Compound 9d]" observation_type=IC50 measurement_unit=µM reported_measurement=24.2

The molecule COc1ccc([Se]C#CCOC2=CC(=O)c3ccccc3C2=O)cc1 [Compound 9c] showed IC50 equal to 27.2

###

tested on: NIH3T3 mouse fibroblast cells; test: MTT cell viability assay in NIH3T3 normal fibroblasts; format: cell-based; conditions: Mus musculus, NIH3T3, 48 h, read-out: IC50 NIH3T3 normal mouse fibroblasts
Attribute: IC50
// units = µM; emit number, no label

compound="O=C1C=C(OCC#C[Te]c2ccc(Cl)cc2)C(=O)c2ccccc21 [Compound 10c]" observation_type=IC50 reported_measurement=4.9
compound="Cc1ccc([Se]C#CCOC2=CC(=O)c3ccccc3C2=O)cc1 [Compound 9b]" observation_type=IC50 reported_measurement=8.93

Continue with the compound presented below.
The compound O=C1C=C(OCC#C[Te]c2ccccc2)C(=O)c2ccccc21 [Compound 10a] showed IC50 equal to 5.83
